Overview of recorded IC50 for various molecules
Target: human chemokine receptor CXCR7 (Homo sapiens (Human), UniProt P25106)
Sequence (P25106 whole entry): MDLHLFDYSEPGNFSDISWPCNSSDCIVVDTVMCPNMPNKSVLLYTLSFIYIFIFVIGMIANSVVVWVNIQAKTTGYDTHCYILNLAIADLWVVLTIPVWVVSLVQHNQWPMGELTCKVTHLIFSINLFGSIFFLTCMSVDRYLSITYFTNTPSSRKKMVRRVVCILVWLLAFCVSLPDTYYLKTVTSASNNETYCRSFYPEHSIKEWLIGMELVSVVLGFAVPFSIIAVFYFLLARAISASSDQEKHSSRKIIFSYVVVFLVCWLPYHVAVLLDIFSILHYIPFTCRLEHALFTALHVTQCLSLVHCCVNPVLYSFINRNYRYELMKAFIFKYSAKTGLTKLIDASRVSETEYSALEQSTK
Assay: Tango CXCR7-bla U2OS beta-arrestin recruitment assay (beta-lactamase reporter, FRET), antagonism of CXCL12/SDF1-α;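 further: compounds preincubated 15 min before CXCL12 addition, then 22 h at 37 °C, FRET emission ratio read with CCF4-AM substrate after 2 h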
Format: cell-based
Settings: antagonistic effect on CXCR7; Tango CXCR7-bla U2OS cells, CXCL12/SDF1-α at its EC80
Endpoint Label: IC50 (nM)

NC(=O)CNC(=O)[C@@H]1CN(C2CCCCC2)CC[C@H]1NC(=O)c1cc(-c2ccc(F)cc2F)on1 (racemic) = 289
O=C(N[C@@H]1CCN(C2CCCCC2)C[C@H]1C(=O)NCc1c[nH]cn1)c1cc(-c2ccc(F)cc2F)on1 (racemic) = 843
O=C(N[C@@H]1CCN(CC2CC2)C[C@H]1C(=O)NC1(c2ncccn2)CC1)c1cc(-c2ccccc2C(F)(F)F)on1 = 294

----------
Molecular target: human chemokine receptor CXCR7 (Homo sapiens (Human))
Experiment: Tango CXCR7-bla U2OS beta-arrestin recruitment assay (beta-lactamase reporter, FRET), antagonism of CXCL12/SDF1-α
Format: cell-based
Settings: antagonistic effect on CXCR7; Tango CXCR7-bla U2OS cells, CXCL12/SDF1-α at its EC80
pIC50: −log10 of the molar value.
Endpoint Label: pIC50

CC(C)(C)N1CC[C@H](NC(=O)c2cc(-c3ccc(F)cc3F)on2)[C@@H](C(=O)NC2(c3ncccn3)CC2)C1 [Example 4.101b] = 6.15
CN(C)C(=O)[C@@H]1CN(CC2CC2)CC[C@H]1NC(=O)c1cn(-c2ccc(F)cc2F)nn1 (racemic) = 6.35
O=C(N[C@H]1CCN(CC2CC2)C[C@@H]1C(=O)NC1(c2ccncn2)CC1)c1cc(-c2ccc(F)cc2F)on1 = 7.80
CN(C)C(=O)[C@@H]1CN(C2CCCCC2)CC[C@H]1NC(=O)c1nnc(-c2ccc(F)cc2F)o1 (racemic) [Example 3.003] = 6.98
CCN1CC[C@@H](NC(=O)c2cc(-c3ccc(F)cc3F)on2)[C@H](C(=O)N(C)C)C1 = 6.17
O=C(N[C@@H]1CCN(C2CCCCC2)C[C@H]1C(=O)NC1(c2ccccn2)CC1)c1noc(-c2ccc(F)cc2F)n1 = 7.16
O=C(N[C@H]1CCN(C2CCCC2)C[C@@H]1C(=O)NC1(c2ccncc2)CC1)c1cc(-c2ccc(F)cc2F)on1 = 7.82
C[C@@H](NC(=O)[C@H]1CN(C2CCCC2)CC[C@@H]1NC(=O)c1cn(-c2ccc(F)cc2F)nn1)c1ccccn1 (single isomer, unassigned) [Example 1.118a] = 7.12
O=C(N[C@H]1CCN(CC2CC2)C[C@@H]1C(=O)NC1(c2ccccc2)CCC1)c1cc(-c2ccc(F)cc2F)on1 = 7.89
O=C(N[C@H]1CCN(CC2CCCC2)C[C@@H]1C(=O)NC1(c2ncccn2)CC1)c1cc(-c2ccc(F)cc2F)on1 = 9.00
CCc1noc(CNC(=O)[C@@H]2CN(C3CCCCC3)CC[C@H]2NC(=O)c2cc(-c3ccc(F)cc3F)on2)n1 (racemic) = 6.90
O=C(N[C@@H]1CCN(C2CCCCC2)C[C@H]1C(=O)NC1(c2ccccn2)CC1)c1nnc(-c2ccc(F)cc2F)o1 (racemic) = 7.59
C[C@@H]1CCC[C@H]1N1CC[C@@H](NC(=O)c2cc(-c3ccc(F)cc3F)on2)[C@H](C(=O)N(C)C)C1 [Example 2.023a] = 8.05
